tgt: T1, Recombinant Human TNF-α/TNFSF1A (human, UniProt P01375 77-233)
T1 construct: also called hTNF-α; huTNFα
procedure text: SPR (BIACORE), antibody captured, TNFα in solution
reported metric: kon (M⁻¹ s⁻¹)
Number in M⁻¹ s⁻¹, nothing else.

Reference set, count: 4
AB386 (antibody, V domains shown, Full-length humanized antibody made in HEK 293-6E; also called hMAK199VH.2b/hMAK199VL.2b) VH: EIQLVQSGAEVKKPGASVKVSCKASGYTFTNYGMNWVRQAPGQGLEWMGWINTYTGEPTYADDFKGRVTFTTDTSTSTAYMELSSLRSEDTAVYYCARKFLTTVVVTDYAMDYWGQGTTVTVSS VL: DIVMTQSPAFLSVTPGEKVTITCRASQDISNYLNWYQQKPDQAPKLLIYYTSRLQSGVPSRFSGSGSGTDYTFTISSLEAEDAATYYCQQGNTLPPTFGQGTKLEIK: 660000
AB365 (antibody, V domains shown, Full-length humanized antibody made in HEK 293-6E; also called hMAK199VH.1b/hMAK199VL.1b) VH: EVQLVQSGSELKKPGASVKVSCKASGYTFTNYGMNWVRQAPGQGLEWMGWINTYTGEPTYADDFKGRFVFSLDTSVSTAYLQISSLKAEDTAVYFCARKFLTTVVVTDYAMDYWGQGTTVTVSS VL: DIQMTQSPSSLSASVGDRVTITCRASQDISNYLNWYQQKPGKAPKLLIYYTSRLQSGVPSRFSGSGSGTDYTLTISSLQPEDFATYYCQQGNTLPPTFGQGTKLEIK: 1.1e+06
AB379 (antibody, V domains shown, Full-length humanized antibody made in HEK 293-6E; also called hMAK199VH.2a/hMAK199VL.2a) VH: EIQLVQSGAEVKKPGASVKVSCKASGYTFTNYGMNWVRQAPGQGLEWMGWINTYTGEPTYADDFKGRFTFTLDTSTSTAYMELSSLRSEDTAVYFCARKFLTTVVVTDYAMDYWGQGTTVTVSS VL: DIVMTQSPAFLSVTPGEKVTITCRASQDISNYLNWYQQKPDQTVKLLIYYTSRLQSGVPSRFSGSGSGTDYTFTISSLEAEDAATYFCQQGNTLPPTFGQGTKLEIK: 890000
AB358 (antibody, V domains shown, Full-length humanized antibody made in HEK 293-6E; also called hMAK199VH.1a/hMAK199VL.1a) VH: EIQLVQSGSELKKPGASVKVSCKASGYTFTNYGMNWVRQAPGQGLEWMGWINTYTGEPTYADDFKGRFVFSLDTSVSTAYLQISSLKAEDTAVYFCARKFLTTVVVTDYAMDYWGQGTTVTVSS VL: DIQMTQSPSSLSASVGDRVTITCRASQDISNYLNWYQQKPGKTVKLLIYYTSRLQSGVPSRFSGSGSGTDYTLTISSLQPEDFATYFCQQGNTLPPTFGQGTKLEIK: 1.4e+06

We now examine a further binder.
Which kon reading was recorded for the binder AB369 (antibody, V domains shown, Full-length humanized antibody made in HEK 293-6E; also called hMAK199VH.2/hMAK199VL.1) VH: EVQLVQSGAEVKKPGASVKVSCKASGYTFTNYGMNWVRQAPGQGLEWMGWINTYTGEPTYADDFKGRVTMTTDTSTSTAYMELSSLRSEDTAVYYCARKFLTTVVVTDYAMDYWGQGTTVTVSS VL: DIQMTQSPSSLSASVGDRVTITCRASQDISNYLNWYQQKPGKAPKLLIYYTSRLQSGVPSRFSGSGSGTDFTLTISSLQPEDFATYYCQQGNTLPPTFGQGTKLEIK ? 940000
